All values here come from paper PMC4466390.

Biological target: T1, NHERF1 PDZ1 (1–140) (human, UniProt O14745 1-140)
T1 construct: Na+/H+ Exchanger Regulatory Factor-1 (NHERF1, EBP50), human, PDZ1 construct, residues 1-140; Plasmid pET16-N1P1 provided by D. F. Mierke; also called WT PDZ1 (1–140); pET16-N1P1; source: E. coli BL21 (DE3), purified (Ni-NTA-agarose)
T1 sequence (looked up): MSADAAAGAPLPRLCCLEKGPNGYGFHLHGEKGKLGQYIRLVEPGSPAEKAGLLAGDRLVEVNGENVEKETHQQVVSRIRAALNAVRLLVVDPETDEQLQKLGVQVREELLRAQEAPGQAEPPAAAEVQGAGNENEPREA
Assay: fluorescence polarisation; as a1 but at pH 5.5; 0.5 uM labeled NPT2A peptide, WT PDZ1 (1–140)
Details: both partners purified
Where no end group is shown, it is not given here.
parameter: pKd
Scale: pKd equals -log10([C]), with [C] in mol/L.

Item under review: {5(6)‑carboxytetramethylrhodamine}-ELPPATPSPRLALPAHHNATRL (type II sodium-dependent phosphate co-transporter (NPT2A, SLC34A1), 22-residue carboxy-terminal fragment; also called labeled NPT2A peptide; source: synthetic peptide (solid phase, Fmoc; HPLC purified)) [rhodamine-labeled 22-residue carboxy-terminal NPT2A peptide] . Reported pKd?
4.79
